A collection of compounds and their measured Guinea Pig Ileum Ke of Nor-BNI
- Measured on: kappa receptors (Cavia porcellus)
- Construct: The longitudinal muscle with the myenteric plexus attached was gently separated from the underlying circular muscle; from tissue; host or cells: guinea pig ileum longitudinal muscle with myenteric plexus
- Sequence (P41144 whole entry): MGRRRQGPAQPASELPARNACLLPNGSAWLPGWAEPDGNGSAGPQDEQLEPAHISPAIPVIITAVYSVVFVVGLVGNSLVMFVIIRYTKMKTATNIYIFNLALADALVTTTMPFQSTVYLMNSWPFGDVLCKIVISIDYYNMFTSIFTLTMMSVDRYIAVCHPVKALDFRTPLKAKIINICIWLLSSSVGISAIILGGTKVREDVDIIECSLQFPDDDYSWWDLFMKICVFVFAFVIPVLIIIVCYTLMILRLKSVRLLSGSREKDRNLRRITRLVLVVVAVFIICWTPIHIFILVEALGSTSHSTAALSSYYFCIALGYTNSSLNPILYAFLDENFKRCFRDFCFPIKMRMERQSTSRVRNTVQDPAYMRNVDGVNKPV
- Assay type: cell-based, guinea pig
Answer as a number with no unit attached.

Answered cases to consult:
>  <Compound>
CCC(=O)Oc1ccc2c3c1O[C@H]1[C@@H](OS(=O)(=O)O)C=C[C@H]4[C@@H](C2)N(C)CC[C@@]341 [NIDA # 20,270, 3-O-Propionylmorphine-6-O-sulfate]

>  <Guinea Pig Ileum Ke of Nor-BNI>
40.73

$$$$
>  <Compound>
C[C@@H](NC(=O)[C@@H](N)Cc1ccc(O)cc1)C(=O)NCC(=O)N(C)[C@@H](Cc1ccccc1)C(=O)NCCO [DAMGO, [D-Ala^2,N-Me-Phe^4,Gly-ol^5]-enkephalin]

>  <Guinea Pig Ileum Ke of Nor-BNI>
27.67

$$$$
>  <Compound>
C=CCN1CC[C@]23c4c5ccc(O)c4O[C@H]2[C@@H](O)C=C[C@H]3[C@H]1C5 [Nalorphine]

>  <Guinea Pig Ileum Ke of Nor-BNI>
0.03

$$$$
>  <Compound>
COc1ccc2c3c1O[C@H]1C(=O)CC[C@@]4(O)[C@@H](C2)N(C)CC[C@]314 [Oxycodone]

>  <Guinea Pig Ileum Ke of Nor-BNI>
45.84

$$$$

# evaluate next
Quick check: Guinea Pig Ileum Ke of Nor-BNI of CN1CC[C@]23c4c5ccc(OC(=O)c6ccccc6)c4O[C@H]2[C@@H](OS(=O)(=O)O)C=C[C@H]3[C@H]1C5 [NIDA # 20,273, 3-O-Benzoylmorphine-6-O-sulfate] ?
70.73
